Data origin: the supplement of paper PMC12764529

experiment: folding stability dG unfold (combined trypsin and chymotrypsin); higher = more stable
folding stability dG unfold reference

{"item-sequence": "SAGGSPLLVLHIRLRRPGEEREIVIPSDLIEDMPLEEIEEILRALPWIDEAEIELEEFPPLRPDELSAGGSA [r2_282_TrMRF]", "folding stability dG unfold": "1.67 kcal/mol"}
{"item-sequence": "SAGGSAGGSAGSPPDQTVTITTTVVTTETTTYPGTPGVTVPRTVVTTVPVTLPVTDPALLSAGGSAGGSAGG [r11_734_JUSTAS]", "folding stability dG unfold": "< -1 kcal/mol"}
{"item-sequence": "SAGGSAGGSAGKKKTITIKIPGMSKEEIAKLIKEKFGPNVKITEIKENKDNLLEITVEVESAGGSAGGSAGG [r11_580_TrROS_Hall]", "folding stability dG unfold": "2.99 kcal/mol"}
{"item-sequence": "SAGGSAGGSAKKIVIKVKPGMTEEEILEEIAKKLGLKPEKIKKIEIERNKDGYLYVTIEIESAGGSAGGSAG [r3_26_TrROS_Hall]", "folding stability dG unfold": "3.82 kcal/mol"}

====

assay: folding stability dG unfold from trypsin proteolysis; higher = more stable
folding stability dG unfold reference

{"item-sequence": "SAGGSASGYYTTTTVEIEPEGDTLTTVTTTTLGVPVTFDPVNNTLTLNLPPDQSLVTTTTVTEVAASAGGSA [r15_1040_JUSTAS]", "folding stability dG unfold [kcal/mol]": 1.02}
{"item-sequence": "SAGGSATIEEIANMPAEEIAQEHGMEVKDVDIERVPNGTITVEVEYEPPDGKKHKHTFQIKIDEGQSAGGSA [r15_805_TrROS]", "folding stability dG unfold [kcal/mol]": 0.089}
{"item-sequence": "SAGGSAGGSANVKLKIDLDPGYGYIKIKLEWEDPGTGNKQEMEITIPIPIPPPPPPPANDKKSAGGSAGGSA [r18_361_TrROS]", "folding stability dG unfold [kcal/mol]": 1.12}
{"item-sequence": "SAGNKIEIEPVNYEPMPNGYYRVTARVTIENPNNKKPWDIDVEAYYPMDPNGQPMNVDEIAKEAIKKIFSAG [r5_604_TrROS]", "folding stability dG unfold [kcal/mol]": 0.624}

====

folding stability dG unfold reference
test: folding stability dG unfold from trypsin proteolysis; higher = more stable
measure: folding stability dG unfold

{"item-sequence": "SAGGSAGGSMKTLTLEGESEEEAIEKVKEYFKKKGINYKLLKIEISEKPNGTKIYTIDIDTKKSAGGSAGGS [r12_924_JUSTAS]", "measure": "folding stability dG unfold", "endpoint-value": "1.19 kcal/mol"}
{"item-sequence": "SAGGSAGGSAGGLPDREILEVRVLNPEREETGLRVRVEVVLPDGPVTIELPAEEVKELASAGGSAGGSAGGS [r10_771_TrMRF]", "measure": "folding stability dG unfold", "endpoint-value": "-0.0431 kcal/mol"}
{"item-sequence": "SAGGMTFSGVTREQALAIAKALEEEGYVLERVEVVEFPEDGTVRALVVVRDPETDEPLAEIELDIKPSAGGS [r16_750_TrMRF]", "measure": "folding stability dG unfold", "endpoint-value": "1.53 kcal/mol"}
{"item-sequence": "SAGGSAGGSAGGGWAEIEIKITIFVFDPGNMTLFMVTLEPRIEVPPVKRDPDNGKWKPDSAGGSAGGSAGGS [r10_815_TrROS]", "measure": "folding stability dG unfold", "endpoint-value": "2.86 kcal/mol"}
{"item-sequence": "SAGGSAGGSAGGSGPEPKFTVEVDPEKDEVTFLVELEDKPLLLVVKDWPEDDPLLKNAFSAGGSAGGSAGGS [r4_328_TrMRF]", "measure": "folding stability dG unfold", "endpoint-value": "0.388 kcal/mol"}
{"item-sequence": "SALIETAEELARELGVEAELVEIEEGEDVALLRIRLRVDGVPYYFLVRIERPGEDPRIFRVEILEVRPESAG [r14_387_TrMRF]", "measure": "folding stability dG unfold", "endpoint-value": "3.67 kcal/mol"}
{"item-sequence": "SEYSRIEFEDYTVLVVKKTLPNGKPLYLVRLYRKEDPKVDPVEVDSPEEAEEAVKELLKKHLPGEEVEKESA [r9_749_TrMRF]", "measure": "folding stability dG unfold", "endpoint-value": "2.3 kcal/mol"}
{"item-sequence": "SAGGSAGGSAGGSKELTVLVVEKNEDGTLTVRKFKIELKDGELKIVEEEEKTVPLEELKSAGGSAGGSAGGS [r4_389_TrROS_Hall]", "measure": "folding stability dG unfold", "endpoint-value": "1.41 kcal/mol"}
{"item-sequence": "SAGGSAGGSPTYTIDVEKYPDGYYFLKIWMPGHNRKIEHPIPPDNPDKIDEITITPNGKIKIDSAGGSAGGS [r20_11_TrROS]", "measure": "folding stability dG unfold", "endpoint-value": "0.161 kcal/mol"}
{"item-sequence": "SASITIPVDELKDFAEHFPGFNVGVNPETGMFQIFFPENGWMINIDIEVDPDDPDTIEIDIEIYPMPPNSAG [r14_604_TrROS]", "measure": "folding stability dG unfold", "endpoint-value": "1.78 kcal/mol"}
{"item-sequence": "SMKITLEKGNYKIEIYKHPETGEIIAKVYDKNGKLVAVAHIKIEVEPDKDGKKIIKKIEIHVHILKEDPKSA [r9_262_TrMRF]", "measure": "folding stability dG unfold", "endpoint-value": "2.58 kcal/mol"}
{"item-sequence": "SAGGSEKLLEEIKEKEFNIPPFIDPKTGKEYPGAKVKVKEAKKIKDTKKIKLIVETPEGKHEFILGSAGGSA [r2_314_TrMRF]", "measure": "folding stability dG unfold", "endpoint-value": "0.324 kcal/mol"}
{"item-sequence": "SAGGSAGGSAGKKKKKPKKKYVFIVIKINLSEEELKKLAEELGIDKVFKNENGYAVLVVKSAGGSAGGSAGG [r11_64_TrROS_Hall]", "measure": "folding stability dG unfold", "endpoint-value": "2.19 kcal/mol"}
{"item-sequence": "SAGVVEITFEVPETGEPFTLVIDEDGNVTGRWPSTGDEQEWKLGDKVITFPPNMSPELAAELEKEALSESAG [r14_561_TrMRF]", "measure": "folding stability dG unfold", "endpoint-value": "0.66 kcal/mol"}
{"item-sequence": "SAGGSAGGSASTSEKIDYPNPPITVTRLPNGVVLVTYSDSNTTTVIPESVLATLPPTVPLFSAGGSAGGSAG [r3_256_JUSTAS]", "measure": "folding stability dG unfold", "endpoint-value": "1.58 kcal/mol"}
{"item-sequence": "SAGGSAGGSAGGKKIKIKINSPGNAEEVKKLLEPFGLEVDSIKENKNNPNLIIVEVNVESAGGSAGGSAGGS [r10_104_TrMRF]", "measure": "folding stability dG unfold", "endpoint-value": "-0.276 kcal/mol"}
{"item-sequence": "SAGGRLVEAIREANKQGKPMSREEIKDKIKDAIREQNEENGGKIPEIEITDIHWNPDNGYVPIEIKVSAGGS [r16_365_TrROS]", "measure": "folding stability dG unfold", "endpoint-value": "-0.152 kcal/mol"}
{"item-sequence": "SAGGSAGGSAGKKKKKKKKKPPVTLTVEIEIEINGKKYIAKKKVKLNKDGKLEVEVEIYPSAGGSAGGSAGG [r11_555_TrROS_Hall]", "measure": "folding stability dG unfold", "endpoint-value": "2.4 kcal/mol"}
{"item-sequence": "SAGGSAGGSMIIIVKLPNGEELPIEVEGEEEAEKIAEEIVKALIEKGITPVSVEIRPIKPEEGSAGGSAGGS [r12_301_TrMRF]", "measure": "folding stability dG unfold", "endpoint-value": "3.13 kcal/mol"}
{"item-sequence": "SAGGSAGGSAGGTPFKAKDPKTDKVYLGEKDPVSGKVTITDPNTGNPIIVPGGEIEFIVSAGGSAGGSAGGS [r10_28_JUSTAS]", "measure": "folding stability dG unfold", "endpoint-value": "0.00952 kcal/mol"}
{"item-sequence": "SAMVVPVKVELEIRVPGTPEEALEIAEELAKAFESLGNVEVDLELIEKSEDGSYIIKLTVTNYLPPELFSAG [r14_413_TrMRF]", "measure": "folding stability dG unfold", "endpoint-value": "0.905 kcal/mol"}
{"item-sequence": "SAGDAIADLLKEAGFEIDSVDSIEPTDGSYVIGFKFEFPNGWYMEITIWIDPNNPDKIEIDIKMQPPDESAG [r5_683_TrROS]", "measure": "folding stability dG unfold", "endpoint-value": "2.6 kcal/mol"}
{"item-sequence": "SAGGSAGGSAGGMTVTVEISIPVTVETSFFKPNKPYFKKKTINKKITIEIPNGEPLSLLSAGGSAGGSAGGS [r10_633_JUSTAS]", "measure": "folding stability dG unfold", "endpoint-value": "0.492 kcal/mol"}
{"item-sequence": "SAGGSGSQEVDIDFKFPPNFNMDELAKKIEELPGIDIKPDRYDPENGTYKITINVNDPQAVREIIRSAGGSA [r2_305_TrROS]", "measure": "folding stability dG unfold", "endpoint-value": "0.0473 kcal/mol"}
{"item-sequence": "SAGGSAGGSYTVETSPVPPGGLLKTYTSPDGVVTTTLYSPDGTVGETTTTPVPPVVPPDPAAAASAGGSAGG [r6_239_JUSTAS]", "measure": "folding stability dG unfold", "endpoint-value": "-0.067 kcal/mol"}
{"item-sequence": "SAGGSAMTVTVELEFEPVTVTDADGKEREVPVRVKVTAKVELVRDPETGELVERVEVTSIEIEVEPSAGGSA [r15_884_TrROS_Hall]", "measure": "folding stability dG unfold", "endpoint-value": "1.73 kcal/mol"}
{"item-sequence": "SAGGMVEITATVGSPDPSLTDEEIAERILKELGLDPEIVEVTFLERRLVPDAAGRVRVVVEMKFLVPEKSAG [r5_528_JUSTAS]", "measure": "folding stability dG unfold", "endpoint-value": "4.77 kcal/mol"}
